target: Anti-CD28 Fab (SEQ ID NOs: 696, 697); test: phage ELISA; Fab on plate pre-incubated with CD28 antigen (competitor), clonal phage supernatant, anti-M13 HRP detection
Sequence (VH, as listed by the source, chain 1 of 2): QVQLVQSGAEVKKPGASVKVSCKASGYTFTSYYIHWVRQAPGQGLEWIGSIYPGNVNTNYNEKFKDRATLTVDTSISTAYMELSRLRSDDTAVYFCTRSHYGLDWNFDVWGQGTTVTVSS
Sequence (VL, as listed by the source, chain 2 of 2): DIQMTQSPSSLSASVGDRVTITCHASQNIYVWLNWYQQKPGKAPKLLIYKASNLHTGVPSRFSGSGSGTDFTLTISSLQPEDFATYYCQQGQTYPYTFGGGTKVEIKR
Measured Phage binding ELISA, Anti-CD28 Fab signal in the presence of CD28 of individual entries
METRIC: Phage binding ELISA, Anti-CD28 Fab signal in the presence of CD28

[
  {
    "BINDER": "YCQGHSVQYMAKCL (also called Peptide-87 library clone) [Phage-1272]",
    "OBSERVED_MEASUREMENT": 0.06
  },
  {
    "BINDER": "YCEGHLPMYMQKCM (also called Peptide-87 library clone) [Phage-1265]",
    "OBSERVED_MEASUREMENT": 0.07
  },
  {
    "BINDER": "YCEGHAREYMDKCL (also called Peptide-87 library clone) [Phage-1267]",
    "OBSERVED_MEASUREMENT": 0.07
  },
  {
    "BINDER": "YCDGHSGEYMSKCL (also called Peptide-87 library clone) [Phage-1266]",
    "OBSERVED_MEASUREMENT": 0.06
  },
  {
    "BINDER": "YCDGHSPQYLWKCL (also called Peptide-87 library clone) [Phage-1269]",
    "OBSERVED_MEASUREMENT": 0.05
  },
  {
    "BINDER": "YCAGHSLQYLGKCY (also called Peptide-87 library clone) [Phage-1260]",
    "OBSERVED_MEASUREMENT": 0.06
  },
  {
    "BINDER": "YCDGHDPQYIRKCI (also called Peptide-87 library clone) [Phage-1264]",
    "OBSERVED_MEASUREMENT": 0.06
  },
  {
    "BINDER": "YCAGHTQEYMLKCL (also called Peptide-87 library clone) [Phage-1271]",
    "OBSERVED_MEASUREMENT": 0.06
  },
  {
    "BINDER": "YCDGHSMEYMAKCL (also called Peptide-87 library clone) [Phage-1268]",
    "OBSERVED_MEASUREMENT": 0.07
  },
  {
    "BINDER": "YCAGHSAEYIQKCL (also called Peptide-87 library clone) [Phage-1270]",
    "OBSERVED_MEASUREMENT": 0.08
  },
  {
    "BINDER": "YCDGHKWEYLQKCL (also called Peptide-87 library clone) [Phage-1263]",
    "OBSERVED_MEASUREMENT": 0.06
  },
  {
    "BINDER": "YCAGHAAIYMAKCL (also called Peptide-87 library clone) [Phage-1261]",
    "OBSERVED_MEASUREMENT": 0.07
  },
  {
    "BINDER": "YCDGHSMTYMAKCI (also called Peptide-87 library clone) [Phage-1262]",
    "OBSERVED_MEASUREMENT": 0.06
  }
]
